Target: USP30 catalytic domain (Homo sapiens)
Sequence (Q70CQ3 65-517): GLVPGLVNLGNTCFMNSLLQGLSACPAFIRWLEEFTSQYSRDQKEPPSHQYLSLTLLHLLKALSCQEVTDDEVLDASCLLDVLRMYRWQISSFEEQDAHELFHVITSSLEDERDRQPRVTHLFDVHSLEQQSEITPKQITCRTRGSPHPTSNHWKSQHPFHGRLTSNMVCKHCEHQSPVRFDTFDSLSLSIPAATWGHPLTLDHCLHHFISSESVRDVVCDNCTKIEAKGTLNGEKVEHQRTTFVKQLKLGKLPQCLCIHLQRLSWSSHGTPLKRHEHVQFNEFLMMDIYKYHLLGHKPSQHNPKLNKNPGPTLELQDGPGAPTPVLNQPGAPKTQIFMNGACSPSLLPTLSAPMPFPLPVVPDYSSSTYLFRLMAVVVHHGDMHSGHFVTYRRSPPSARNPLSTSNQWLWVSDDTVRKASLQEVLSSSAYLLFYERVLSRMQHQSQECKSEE
endpoint-label: pIC50
Schema: pIC50 number; meaning minus log10 of the concentration expressed in molar units.

Answer briefly: pIC50 recorded on USP30 catalytic domain (Homo sapiens) for CC(C)NS(=O)(=O)c1cccc2c(NC(=O)[C@H](Cc3ccccc3)NC(=O)c3ccccc3)cccc12 [AV-11324–5]
6.56
